method: Pharmacokinetics in rats after single intravenous administration (RP-HPLC)
Type: in vivo, rat
measurement-setup: female, SD, iv; rat whole blood, single i.v. 8 mg/kg, two-chamber model; read-out: C0 (initial concentration)
endpoint: C0 (µM)
Your answer should be a plain number; it is taken to be in µM.

Q: Would you kindly share the measured C0 for CC(=O)Oc1c(OC(C)=O)c2c(C)coc2c2ccc3c(c12)CCCC3(C)C [Free ATA, acetyltanshinone IIA] ?
Ans: 4.06

* * *

Test system: human umbilical vein endothelial cells (HUVEC)
method: MTT cell viability assay, HUVEC
Format: cell-based
measurement-setup: Homo sapiens, HUVEC, 48 h
endpoint: IC50 (µM)
Your answer should be a plain number; it is taken to be in µM.

Q: Would you kindly share the measured IC50 for CC(=O)Oc1c(OC(C)=O)c2c(C)coc2c2ccc3c(c12)CCCC3(C)C [Free ATA, acetyltanshinone IIA] ?
Ans: 6.67
